I'd be grateful if you could share measured pIC50 for these entries.
TARGET: Apoptosis regulator Bcl-2 (Homo sapiens, UniProt P10415)
Sequence (P10415 whole entry): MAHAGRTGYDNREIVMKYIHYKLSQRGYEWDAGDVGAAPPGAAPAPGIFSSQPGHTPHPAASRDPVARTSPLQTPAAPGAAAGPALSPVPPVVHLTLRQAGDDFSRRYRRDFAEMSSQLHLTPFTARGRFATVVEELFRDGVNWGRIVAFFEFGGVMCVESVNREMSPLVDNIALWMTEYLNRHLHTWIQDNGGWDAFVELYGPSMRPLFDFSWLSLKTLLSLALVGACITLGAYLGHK
Numbers only, as −log10 of the molar value.

Here are 2 compounds together with their reported answers.
COMPOUND: COc1cc(CN2CCN(C3CC4(CCN(c5ccc(C(=O)NS(=O)(=O)c6ccc(NC[C@H]7CC[C@](C)(O)CC7)c([N+](=O)[O-])c6)c(Oc6cnc7[nH]ccc7c6)c5)CC4)C3)C(c3ccccc3C(C)C)C2)cc(OC)c1 (stereo partly drawn) [US20240376097, Example 49]
pIC50: 9.70
--
COMPOUND: CC(C)c1ccccc1C1CN(CC(C)(C)C)CCN1C1CC2(CCN(c3ccc(C(=O)NS(=O)(=O)c4ccc(NC[C@H]5CC[C@](C)(O)CC5)c([N+](=O)[O-])c4)c(Oc4cnc5[nH]ccc5c4)c3)CC2)C1 (stereo partly drawn) [US20240376097, Example 12]
pIC50: 9.14

Value sought for every listed compound: pIC50.
1. COc1cc(CN2CCN(C3CC4(CCN(c5ccc(C(=O)NS(=O)(=O)c6ccc(NC[C@H]7CC[C@](C)(O)CC7)c([N+](=O)[O-])c6)c(Oc6cnc7[nH]ccc7c6)c5)CC4)C3)C(c3ccccc3C(C)C)C2)cc(C(F)(F)F)c1OC (stereo partly drawn) [US20240376097, Example 179]
2. COc1cc(CN2CCN(C3CC4(CCN(c5ccc(C(=O)NS(=O)(=O)c6ccc(NC[C@H]7CC[C@](C)(O)CC7)c([N+](=O)[O-])c6)c(Oc6cnc7[nH]cc(F)c7c6)c5)CC4)C3)[C@H](c3ccccc3C(C)C)C2)ccc1Cl [US20240376097, Example 278]

Result string:
1: 8.82; 2: 9.22

Value sought for every listed compound: pIC50.
1. COc1cc(CN2CCN(C3CC4(CCN(c5ccc(C(=O)NS(=O)(=O)c6ccc(NC[C@H]7CC[C@](C)(O)CC7)c([N+](=O)[O-])c6)c(Oc6cnc7[nH]cc(F)c7c6)c5)CC4)C3)[C@H](c3ccccc3C(C)C)C2)cc(C)c1OC [US20240376097, Example 210]
2. COc1cc(CN2CCN(C3CC4(CCN(c5ccc(C(=O)NS(=O)(=O)c6ccc(NC[C@H]7CC[C@](C)(O)CC7)c([N+](=O)[O-])c6)c(Oc6cnc7[nH]ccc7c6)c5)CC4)C3)[C@H](c3ccccc3C(C)C)C2)ccc1Cl [US20240376097, Example 276]
3. COCCN1CCN(C2CC3(CCN(c4ccc(C(=O)NS(=O)(=O)c5ccc(NC[C@H]6CC[C@](C)(O)CC6)c([N+](=O)[O-])c5)c(Oc5cnc6[nH]ccc6c5)c4)CC3)C2)C(c2ccccc2C(C)C)C1 (stereo partly drawn) [US20240376097, Example 13]
4. COc1ccc(CN2CCN(C3CC4(CCN(c5ccc(C(=O)NS(=O)(=O)c6ccc(NC[C@H]7CC[C@](C)(O)CC7)c([N+](=O)[O-])c6)c(Oc6cnc7[nH]ccc7c6)c5)CC4)C3)C(c3ccccc3C(C)C)C2)cc1 (stereo partly drawn) [US20240376097, Example 19]

Result string:
9.48
9.32
10.96
10.07
